Target: ActRIIA and ActRIIB (on TGFB/SMAD SBE Reporter HEK293 cells) (human)
Sequence (chain, as listed by the source, chain 1 of 2): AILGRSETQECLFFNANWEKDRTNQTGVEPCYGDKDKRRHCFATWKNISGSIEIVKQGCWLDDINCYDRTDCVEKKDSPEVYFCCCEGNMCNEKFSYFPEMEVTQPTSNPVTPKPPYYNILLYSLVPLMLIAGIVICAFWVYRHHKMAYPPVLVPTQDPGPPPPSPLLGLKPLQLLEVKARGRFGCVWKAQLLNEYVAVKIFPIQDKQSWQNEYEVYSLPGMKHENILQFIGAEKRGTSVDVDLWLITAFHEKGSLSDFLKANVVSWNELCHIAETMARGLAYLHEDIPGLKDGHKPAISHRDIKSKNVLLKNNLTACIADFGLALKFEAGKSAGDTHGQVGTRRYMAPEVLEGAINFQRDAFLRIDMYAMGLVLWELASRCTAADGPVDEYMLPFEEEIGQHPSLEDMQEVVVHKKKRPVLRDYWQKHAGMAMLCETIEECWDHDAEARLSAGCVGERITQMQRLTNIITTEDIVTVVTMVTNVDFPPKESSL
Sequence (chain, as listed by the source, chain 2 of 2): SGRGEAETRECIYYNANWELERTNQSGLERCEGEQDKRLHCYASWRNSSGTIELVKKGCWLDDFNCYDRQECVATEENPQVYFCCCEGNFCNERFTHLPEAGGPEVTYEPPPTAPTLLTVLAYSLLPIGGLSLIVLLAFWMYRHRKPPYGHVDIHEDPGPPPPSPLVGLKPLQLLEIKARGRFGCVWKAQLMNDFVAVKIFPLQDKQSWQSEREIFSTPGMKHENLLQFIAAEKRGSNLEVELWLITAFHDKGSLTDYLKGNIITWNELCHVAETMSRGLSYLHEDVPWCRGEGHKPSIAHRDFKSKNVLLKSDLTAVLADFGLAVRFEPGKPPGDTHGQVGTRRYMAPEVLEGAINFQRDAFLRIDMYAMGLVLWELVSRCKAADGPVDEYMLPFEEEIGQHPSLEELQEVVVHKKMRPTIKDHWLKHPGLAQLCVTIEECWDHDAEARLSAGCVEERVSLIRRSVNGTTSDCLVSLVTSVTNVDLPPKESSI
Assay: cell-based or functional assay
measuredMetric: IC50, Activin SMAD RGA (nM)
Write the number in nM without appending the unit.

Antibody Soidawürstle (antibody, V domains shown, full-length IgG; also called Soidawüsrstel) VH: QVQLVQSGAEVRKPGSSVKVSCKASGYTFTSSYINWVRQAPGQGLEWMGTINPVSGSTSYAQKFQGRVTITADTSTSTAYMELSSLRSEDTAVYYCARGGWFDYWGQGTLVTVSS VL: QSALTQPRSVSGSPGQSVTISCTGTSSDVGSYNRVNWYQQHPGKAPKLMIYGVSKRESGVPDRFSGSKSGNTASLTISGLQAEDEADYYCGTFAGGRYYGVFGGGTKLTVL
0.16
Antibody Schwardamaga (antibody, V domains shown, full-length IgG) VH: QVQLVQSGAEVKKPGSSVKVSCKASGYTFTSSYINWVRQAPGQGLEWMGTINAVSGSTSYAQKFQGRVTITADTSTSTAYMELSSLRSEDTAVYYCARGGWFDYWGQGTLVTVSS VL: QSALTQPRSVSGSPGQSVTISCTGTSSDVGSANYVNWYQQHPGKAPKPMIYGVSRRPSGVPDRFSGSKSGNTASLTISGLQAEDEADYYCGTFAGGKYYGVFGGGTKLTVL
0.46
Bimagrumab (antibody, V domains shown) VH: QVQLVQSGAEVKKPGASVKVSCKASGYTFTSSYINWVRQAPGQGLEWMGTINPVSGSTSYAQKFQGRVTMTRDTSISTAYMELSRLRSDDTAVYYCARGGWFDYWGQGTLVTVSS VL: QSALTQPASVSGSPGQSITISCTGTSSDVGSYNYVNWYQQHPGKAPKLMIYGVSKRPSGVSNRFSGSKSGNTASLTISGLQAEDEADYYCGTFAGGSYYGVFGGGTKLTVL
0.32

// switching to the query binder
Quick one: IC50, Activin SMAD RGA for Antibody Ofaschlupfer (antibody, V domains shown, full-length IgG) VH: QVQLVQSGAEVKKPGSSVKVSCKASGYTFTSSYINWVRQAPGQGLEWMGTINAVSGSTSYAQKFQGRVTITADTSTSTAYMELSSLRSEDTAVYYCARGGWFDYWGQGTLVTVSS VL: QSALTQPRSVSGSPGQSVTISCTGTSSDVGSKNYVNWYQQHPGKAPKLMIYGVSKRESGVPDRFSGSKSGNTASLTISGLQAEDEADYYCGTFAGGKYYGVFGGGTKLTVL ?
0.32
